Origin of values: the supplement of paper PMC10567573

B1: ACSBG2 (parent)
chain: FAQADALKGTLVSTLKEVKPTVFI

variants of: B1; experiment: protein stability index of a GFP-peptide fusion (GPS, HEK-293T) (PSI 1-6); higher = more stable; conditions: c terminus: a fixed tail appended;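 note: lentivirally expressed fusions sorted by FACS into six bins by GFP to DsRed ratio, PSI derived from sequencing read proportions per bin multiplied by bin number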
test_readout: protein stability index

>  <construct_sequence>
FAQADVLKGTLVSTLKEVKPTVFI [A6V]

>  <numeric_readout>
2.58

$$$$
>  <construct_sequence>
FAQADALKGTLVHTLKEVKPTVFI [S13H]

>  <numeric_readout>
1.84

$$$$
>  <construct_sequence>
FAQADALKGPLVSTLKEVKPTVFI [T10P]

>  <numeric_readout>
1.14

$$$$
>  <construct_sequence>
FAQADALKGTLVSTLKEVDPTVFI [K19D]

>  <numeric_readout>
2.26

$$$$
>  <construct_sequence>
FAIADALKGTLVSTLKEVKPTVFI [Q3I]

>  <numeric_readout>
4.29

$$$$
>  <construct_sequence>
FAQADALKGTLVSTQKEVKPTVFI [L15Q]

>  <numeric_readout>
2.02

$$$$
>  <construct_sequence>
FAQADADKGTLVSTLKEVKPTVFI [L7D]

>  <numeric_readout>
2.12

$$$$
